- studyTarget: His6-BldC (Streptomyces coelicolor)
- experimentalProtocol: fluorescence polarization
- conditionsUsed: stoichiometry 2:1 (Fig. 5a); FP: 25 mM Tris pH 7.5, 150 mM NaCl, 1 nM F-DNA, 25 C; footprinting: 10 mM Tris HCl pH 7.8, 150 mM NaCl, 2 mM DTT, 1 ug poly(dI-dC), 10% glycerol (none for …)
pKd: −log10 of the molar value.
recordedEndpoint: pKd

residuestring="TTCAATTCGGACAATTCGGACA / AATGTCCGAATTGTCCGAATTG [whiI opt 22mer (FP)]" valueobserved=7.70

* * *

- studyTarget: Tag-free BldC (Streptomyces coelicolor) (UniProt A0A0M7QSG5)
- experimentalProtocol: fluorescence polarization
- conditionsUsed: FP: 25 mM Tris pH 7.5, 150 mM NaCl, 1 nM F-DNA, 25 C; footprinting: 10 mM Tris HCl pH 7.8, 150 mM NaCl, 2 mM DTT, 1 ug poly(dI-dC), 10% glycerol (none for …)
recordedEndpoint: Kd (nM)

residuestring="TTCAATTCGGACAATTCGGACA / AATGTCCGAATTGTCCGAATTG [whiI opt 22mer (FP)]" studytarget="Tag-free BldC (Streptomyces coelicolor) (UniProt A0A0M7QSG5)" valueobserved=16.5
